# System: DU-145
# experimentSummary: NCI tumour cell line growth inhibition, 48 h
Active and inactive are the calls of the source. Rule as the data show it: active = GI50 up to about 1.1 µM and inactive = higher.
Respond with a class label; see 1 (active), -1 (inactive)

Field: example entries. Status: answers known.
molecule	group
O=[N+]([O-])/C(C(Cl)=C(Cl)Cl)=C1\NCCS1	-1
C=C1C[C@@H]2O[C@H]3[C@H]4[C@@H](C[C@@H](C)[C@@H](OC(C)=O)[C@H]42)[C@@H](C)CO[C@@]3(C)[C@H](OC(C)=O)C[C@H]1O	-1

**Query** For CC(=O)O[C@H]1C(=O)[C@@]2(C)[C@H]([C@H](OC(=O)c3ccoc3)[C@]3(O)C[C@H](OC(=O)[C@H](O)[C@@H](NC(=O)c4ccccc4)c4ccccc4)C(C)=C1C3(C)C)[C@]1(OC(C)=O)CO[C@@H]1C[C@@H]2O , which call appears in the assay record?
**Result** 1

**Query** For CCCC[S+]([O-])CCC(N)P(=O)(O)O (stereo unspecified) , which call appears in the assay record?
**Result** -1

**Query** For CN(C)C(=S)S [SODIUM DIMETHYLCARBAMODITHIOATE] , which call appears in the assay record?
**Result** -1

**Query** For NC(CCCCO)C(=O)O (stereo unspecified) , which call appears in the assay record?
**Result** -1

**Query** For CCOC(=O)c1c(C)cc(=O)n2c1[nH]c1ccccc12 , which call appears in the assay record?
**Result** -1

###

GI50 values by entry
# System: M14
# experimentSummary: NCI tumour cell line growth inhibition, 48 h
Calls of active or inactive are those of the source. Cut-off read from the data, not from the text of the source: active = GI50 up to about 1.1 µM and inactive = higher.

These solved cases illustrate the format of a correct answer.
molecule	assayValue
CCCCCCCCCCCCCCCCCC(CCCCCCCCCCCCCCCCC)OP(=O)(O)O	> 100 µM (inactive)
Nc1ccn(CCO)c(=O)n1	> 100 µM (inactive)
C=C1C[C@@H]2O[C@H]3[C@H]4[C@@H](C[C@@H](C)[C@@H](OC(C)=O)[C@H]42)[C@@H](C)CO[C@@]3(C)[C@H](OC(C)=O)C[C@H]1O	> 100 µM (inactive)
Cc1ccc(N2C(=O)C3c4[nH]c5ccccc5c4C4CCC(C(C)(C)C)CC4C3C2=O)cc1 (stereo not given)	13.6 µM (inactive)

Now for the molecule whose GI50 we want.
**Query** Give a short answer stating reported GI50 for O=C(Nc1nc2ncn(CCO)c2c(=S)[nH]1)c1ccccc1 .
**Result** > 100 µM (inactive)

###

# Tested on: HL-60
# experimentSummary: NCI tumour cell line growth inhibition, 48 h
Activity calls are given as the source filed them. Rule as the data show it: active = GI50 up to about 1.1 µM and inactive = higher.
measuredParameter: GI50

compound	assayValue
O=C1NC2=C(CCCCC/C2=N\O)C12CCCCCC2	> 100 µM (inactive)
Cc1cnoc1NS(=O)(=O)c1ccc(Nc2nnc(/C=C/c3c(O)ccc4ccccc34)c(=O)n2N)cc1	0.74 µM (active)
CC(SC(=S)Nc1cccc(F)c1)C(=O)O (stereo not given)	13.3 µM (inactive)
CC#COP(=O)(OCC)OCC	17.7 µM (inactive)

Now for the compound whose GI50 we want.
**Query** Give a short answer stating reported GI50 for Cc1ccc2c(=O)c(-c3n[nH]c(=S)s3)c[nH]c2n1 .
**Result** > 100 µM (inactive)

###

# Tested on: IGROV-1
# experimentSummary: NCI tumour cell line growth inhibition, 48 h
Activity calls are given as the source filed them. No stated cut-off is given here; in the data, active = GI50 up to about 1.1 µM and inactive = higher.
GI50 values by entry

These solved cases illustrate the format of a correct answer.
compound	measuredParameter	assayValue
CSC1=C(C#N)C(=O)N(c2ccc(Cl)cc2)C(=O)C1C#N (centres undefined)	GI50	> 100 µM (inactive)
C=C(C(N)=O)c1ccc([N+](=O)[O-])o1	GI50	10.6 µM (inactive)

**Query** Give a short answer stating reported GI50 for CCCC1=C(OC)C(=O)c2c(C)cc(Cl)nc2C1=O .
**Result** 11.7 µM (inactive)

**Query** Give a short answer stating reported GI50 for COc1cc(O)c2c(c1C)C(C)(O)c1c(C)coc1C2=O (centres undefined) .
**Result** > 100 µM (inactive)

**Query** Give a short answer stating reported GI50 for COC(=O)CCC(C)[C@H]1CCC2C3CC[C@@H]4CC5(CC[C@]4(C)C3C[C@H](OC(C)=O)[C@@]21C)OOC1(CCCCC1)OO5 (some centres undefined) .
**Result** 2.12 µM (inactive)

**Query** Give a short answer stating reported GI50 for CC1=NN(c2nc(N)nc(/C(C#N)=C\c3csc([N+](=O)[O-])c3)n2)C(C)(C)C1 .
**Result** 49.3 µM (inactive)

**Query** Give a short answer stating reported GI50 for COc1ccc(N(C(=O)Nc2ccc(Cl)c(Cl)c2)C2c3cccn3C(=O)N2c2ccc(Cl)c(Cl)c2)cc1 (centres undefined) .
**Result** > 100 µM (inactive)

**Query** Give a short answer stating reported GI50 for O=C(Nc1ccccc1)N(CCN(Cc1ccccc1)C(=O)Nc1ccccc1)CCN(Nc1ccccc1)C(=O)Nc1ccccc1 .
**Result** > 100 µM (inactive)

**Query** Give a short answer stating reported GI50 for COc1cccc(Cc2cc(=O)c3ccc(C)nc3[nH]2)c1 .
**Result** > 100 µM (inactive)

###

# Test system: KM12
# experimentSummary: NCI tumour cell line growth inhibition, 48 h
Activity calls are given as the source filed them. No stated cut-off is given here; in the data, active = GI50 up to about 1.1 µM and inactive = higher.
Respond with a class label; see yes (1) = active, no (0) = inactive

Field: example entries. Status: answers known.
molecule	group
Oc1c(C(Nc2cccc3cccnc23)c2ccccc2)ccc2cccnc12 (stereo unspecified)	no (0)
O=C1c2ccccc2C(=O)c2c(NC(=O)c3ccc4c5c(ncnc35)-c3ccccc3C4=O)cccc21	no (0)
Oc1ccc(Oc2cc3c(cc2Oc2ccc(O)cc2)-c2nc-3nc3[nH]c(nc4nc(nc5[nH]c(n2)c2cc(Oc6ccc(O)cc6)c(Oc6ccc(O)cc6)cc52)-c2cc(Oc5ccc(O)cc5)c(Oc5ccc(O)cc5)cc2-4)c2cc(Oc4ccc(O)cc4)c(Oc4ccc(O)cc4)cc32)cc1	no (0)
NCC(=O)Nc1ccccc1	no (0)
COCOc1cc(OC)c(Br)cc1C/C(=N/O)C(=O)OC	no (0)
COC(=O)C(=O)c1c2ccccc2n2ccc3c4ccccc4[nH]c3c12	no (0)

**Query** For CCOC(=O)/C(C#N)=C/c1coc2cc(C)cc(C)c2c1=O , which call appears in the assay record?
**Result** no (0)

**Query** For O/N=C(\c1ccccc1)N1CCCCC1 , which call appears in the assay record?
**Result** no (0)

**Query** For Cc1ccc(NC(=O)C(=O)C(C2C(C)CC(=O)C2CC(=O)O)[N+](=O)[O-])cc1 (stereo unspecified) , which call appears in the assay record?
**Result** no (0)

**Query** For COc1ccc(C[C@@H]2NC[C@@H](O)[C@@H]2OC(C)=O)cc1 , which call appears in the assay record?
**Result** yes (1)

**Query** For CC1=NN(c2nc(N)nc(/C(C#N)=C\c3csc([N+](=O)[O-])c3)n2)C(C)(C)C1 , which call appears in the assay record?
**Result** no (0)

###

GI50 values by entry
# System: SF-295
# experimentSummary: NCI tumour cell line growth inhibition, 48 h
The source made the active and inactive calls. Cut-off read from the data, not from the text of the source: active = GI50 up to about 1.1 µM and inactive = higher.

These solved cases illustrate the format of a correct answer.
compound	assayValue
COc1ccc(C[C@@H]2NC[C@@H](O)[C@@H]2OC(C)=O)cc1	0.0253 µM (active)
COc1ccc(N2C(=O)C3c4[nH]c5ccc(OC)cc5c4C4CCC(C(C)(C)C)CC4C3C2=O)cc1 (centres undefined)	9.51 µM (inactive)
COc1ccc(OC)c(-c2nc(O)c3ccccc3n2)c1	> 100 µM (inactive)
COc1ccc(/C=C2\C(=O)N(C3OC(COC(C)=O)C(OC(C)=O)C(OC(C)=O)C3OC(C)=O)c3ccccc3N=C2N)cc1 (centres undefined)	21.9 µM (inactive)
CCCc1c2c3ccccc3nc-2nc2ccccn12	49.8 µM (inactive)
O=C(CCC(=O)Nc1ccc(Cl)cc1)CC(=O)c1ccc2ccccc2c1	> 100 µM (inactive)

**Query** Give a short answer stating reported GI50 for CC(C)(C)c1ccccc1N1C(=O)c2ccc3c4c(ccc(c24)C1=O)N(c1ccccc1C(C)(C)C)C3=O .
**Result** 71.3 µM (inactive)

**Query** Give a short answer stating reported GI50 for C[N+]1(CCN=C=NC2CCCCC2)CCOCC1 .
**Result** > 100 µM (inactive)

**Query** Give a short answer stating reported GI50 for CCCCCCCCCCCCCCCCCCNc1ccn(C2OC(COP(=O)(O)OCC3OC(n4cc(F)c(NCCCCCCCCCCCCCCCCCC)nc4=O)CC3O)C(O)C2O)c(=O)n1 (centres undefined) .
**Result** > 100 µM (inactive)

###

# Tested on: Malme-3M
# experimentSummary: NCI tumour cell line growth inhibition, 48 h
Activity calls are given as the source filed them. Cut-off read from the data, not from the text of the source: active = GI50 up to about 1.1 µM and inactive = higher.
Respond with a class label; see yes (active), no (inactive)

Field: example entries. Status: answers known.
compound	group
Oc1c(C(Nc2cccc3cccnc23)c2ccccc2)ccc2cccnc12 (stereo not given)	no
CN(C)CCC[N+]1=Nc2cccc3cccc(c23)N1	no
Nc1nc(=O)c2c([nH]1)NCC(CNc1ccc(C(=O)N[C@@H](CCC(=O)O)C(=O)O)cc1)N2C=O (stereo not given in full)	no

**Query** For COc1ccc(C2[C@@H](Cl)C(=O)N2c2ccc(OC)cc2)cc1 (stereo not given in full) , which call appears in the assay record?
**Result** no

**Query** For C/C(=C1/CCCC2(N=NCC2c2ccccc2)C1=O)c1ccccc1 (stereo not given) , which call appears in the assay record?
**Result** no

**Query** For COc1cc(C2c3cc4c(cc3[C@@H](NCCCN3CCCC3=O)C3COC(=O)[C@H]23)OCO4)cc(OC)c1O (stereo not given in full) , which call appears in the assay record?
**Result** yes

**Query** For CCC(C)(O)c1cn(-c2ccc(S(=O)(=O)O)cc2)nn1 (stereo not given) , which call appears in the assay record?
**Result** no

**Query** For N#CC(C#N)=C/C=C/c1c(Cl)cccc1Cl , which call appears in the assay record?
**Result** no

**Query** For COC(=O)C1=C(C(=O)OC)C23CC1C1C(C(=O)OC)=C(C(=O)OC)C12C1C=CC3C2C(=O)OC(=O)C21 (stereo not given) , which call appears in the assay record?
**Result** no

**Query** For CCOC(=O)c1nc2cc(F)c(F)cc2nc1NCc1cc(OC)c(OC)c(OC)c1 , which call appears in the assay record?
**Result** no
